# assayed-system: human Src enzyme (Homo sapiens, UniProt P12931)
# Construct: purchased Carna Biosciences, Inc. 08-173
# Sequence (P12931 whole entry): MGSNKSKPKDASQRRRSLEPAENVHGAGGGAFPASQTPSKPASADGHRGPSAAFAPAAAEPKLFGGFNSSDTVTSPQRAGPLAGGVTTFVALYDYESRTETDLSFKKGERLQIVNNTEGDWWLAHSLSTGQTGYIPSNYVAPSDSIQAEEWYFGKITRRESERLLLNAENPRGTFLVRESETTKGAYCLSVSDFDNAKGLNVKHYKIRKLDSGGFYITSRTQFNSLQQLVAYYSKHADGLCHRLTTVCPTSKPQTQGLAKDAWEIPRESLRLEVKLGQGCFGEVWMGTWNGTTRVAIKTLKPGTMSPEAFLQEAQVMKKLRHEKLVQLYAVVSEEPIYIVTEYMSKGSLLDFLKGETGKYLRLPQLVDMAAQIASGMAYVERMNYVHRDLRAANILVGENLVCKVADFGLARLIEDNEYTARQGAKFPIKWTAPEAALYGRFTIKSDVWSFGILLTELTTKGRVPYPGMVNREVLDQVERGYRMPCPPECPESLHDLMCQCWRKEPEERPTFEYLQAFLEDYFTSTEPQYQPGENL
# test-method-notes: Src enzyme inhibitory activity (time-resolved fluorometry, biotinylated peptide phosphorylation)
# Assay type: biochemical
# details: read-out: SRC_IC50
pIC50: −log10 of the molar value.
assay-endpoint: pIC50

The following compounds have reported results that may help.
chemical-string	pIC50
Cc1cc(Oc2c(F)cccc2F)ncc1-n1ncc(C(=O)c2cc3cc(SC(F)F)c(N4C(=O)NC(C)(C)C4=O)cc3[nH]2)c1N	6.64
Cc1cc(Oc2ccccc2F)ccc1-n1ncc(C(=O)c2cc3cc(C(C)C)c(NS(C)(=O)=O)cc3[nH]2)c1N	7.68
Cc1cc(Oc2ccccc2F)ccc1-n1ncc(C(=O)c2cc3cc(OCC(F)F)c(N4C(=O)NC5(CCN(Cc6ccccc6)CC5)C4=O)cc3[nH]2)c1N	7.41

I: Cc1cc(Oc2c(F)cccc2F)ncc1-n1ncc(C(=O)c2cc3cc(OC(F)F)c(NS(=O)(=O)C4CCOCC4)cc3[nH]2)c1N
II: Cc1cc(Oc2ccccc2F)ccc1-n1ncc(C(=O)c2cc3cc(F)c(N4C(=O)NC(C)(C)C4=O)cc3[nH]2)c1N
Endpoint returns whichever of I and II has the numerically higher pIC50. Answer by stating the label of the chosen item.
II

* * *

# assayed-system: human Src enzyme (Homo sapiens, UniProt P12931)
# Construct: purchased Carna Biosciences, Inc. 08-173
# test-method-notes: Src enzyme inhibitory activity (time-resolved fluorometry, biotinylated peptide phosphorylation)
# Format: biochemical
# details: biotinylated peptide phosphorylation, read-out: SRC_IC50
assay-endpoint: IC50 (µM)

The following compounds have reported results that may help.
compound	assay-endpoint	unit-label	endpoint-value
Cc1cc(Oc2ccccc2F)ncc1-n1ncc(C(=O)c2cc3cc(OCC(F)F)c(NS(=O)(=O)c4cccc(Cl)c4)cc3[nH]2)c1N [Example 5-1-424]	IC50	µM	0.48
Cc1cc(Oc2ccccc2F)ccc1-n1ncc(C(=O)c2cc3cc(F)c(NS(=O)(=O)CC(=O)N4CCOCC4)cc3[nH]2)c1N [Example 4-10-004]	IC50	µM	0.012
CC(=O)N1CCC(c2cc3[nH]c(C(=O)c4cnn(-c5cnc(Oc6ccccc6F)cc5C)c4N)cc3cc2OC(F)F)CC1 [Example 4-17-008]	IC50	µM	0.013
Cc1cc2cc(C(=O)c3cnn(-c4cnc(Oc5c(F)cccc5F)cc4C)c3N)[nH]c2cc1N1C(=O)N[C@@H](C)C1=O [Example 5-1-443]	IC50	µM	0.025
Cc1cc(Oc2ccccc2F)ncc1-n1ncc(C(=O)c2cc3cc(F)c(NS(=O)(=O)c4cccc(Cl)n4)cc3[nH]2)c1N [Example 5-1-529]	IC50	µM	0.84

P: Cc1cccc(S(=O)(=O)Nc2cc3[nH]c(C(=O)c4cnn(-c5ccc(Oc6ccccc6F)cc5C)c4N)cc3cc2F)n1 [Example 5-1-532]
Q: Cc1cc(Oc2c(F)cccc2F)ncc1-n1ncc(C(=O)c2cc3cc(Cl)c(NS(C)(=O)=O)cc3[nH]2)c1N [Example 4-2-086]
R: COc1ccnc(S(=O)(=O)Nc2cc3[nH]c(C(=O)c4cnn(-c5cnc(Oc6c(F)cccc6F)cc5C)c4N)cc3cc2C)c1 [Example 5-1-511]
S: Cc1cc2cc(C(=O)c3cnn(-c4c(C)cc(Oc5ccccc5)cc4F)c3N)[nH]c2cc1NS(C)(=O)=O [Example 4-2-060]
T: Cc1cc(Oc2ccccc2F)ccc1-n1ncc(C(=O)c2cc3cc(OCC(F)F)c(N4CCN(S(C)(=O)=O)CC4)cc3[nH]2)c1N [Example 4-23-005]
Sort the compounds on IC50; start with the lowest figure. In plain terms: list the labels in the order you were asked to.
T, S, Q, P, R

A: Cc1cc(Oc2ccccc2F)ncc1-n1ncc(C(=O)c2cc3cc(OCC(F)F)c(NS(=O)(=O)C4CC4)cc3[nH]2)c1N [Example 4-24-027]
B: Cc1cc(Oc2ccccc2F)ccc1-n1ncc(C(=O)c2cc3cc(OCC(F)F)c(NS(=O)(=O)N4CCOCC4)cc3[nH]2)c1N [Example 4-22-005]
Endpoint returns whichever of A and B has the numerically higher IC50. Answer by stating the label of the chosen item.
A
(A: 0.14 µM, B: 0.044 µM)

* * *

# assayed-system: human Lck enzyme (Homo sapiens, UniProt P06239)
# Construct: purchased Carna Biosciences, Inc. 08-170
# Sequence (P06239 whole entry): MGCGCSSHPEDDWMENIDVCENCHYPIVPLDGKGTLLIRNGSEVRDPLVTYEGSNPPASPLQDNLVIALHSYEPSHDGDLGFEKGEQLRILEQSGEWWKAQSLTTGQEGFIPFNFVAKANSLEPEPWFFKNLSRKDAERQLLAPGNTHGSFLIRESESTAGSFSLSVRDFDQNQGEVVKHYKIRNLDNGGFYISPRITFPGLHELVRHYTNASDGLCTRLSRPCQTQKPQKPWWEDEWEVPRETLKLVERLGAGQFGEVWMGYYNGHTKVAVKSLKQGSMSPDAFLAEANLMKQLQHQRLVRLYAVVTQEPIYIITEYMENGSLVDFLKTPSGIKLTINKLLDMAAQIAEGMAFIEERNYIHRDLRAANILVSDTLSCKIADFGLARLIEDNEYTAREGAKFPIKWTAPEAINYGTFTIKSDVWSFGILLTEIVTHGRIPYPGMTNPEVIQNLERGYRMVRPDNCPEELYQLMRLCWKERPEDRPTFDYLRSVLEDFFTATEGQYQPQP
# test-method-notes: Lck enzyme inhibitory activity (time-resolved fluorometry, biotinylated peptide phosphorylation)
# Type: biochemical
# details: read-out: LCK_IC50
pIC50: −log10 of the molar value.
assay-endpoint: pIC50

compound	pIC50
Cc1cc(Oc2ccccc2F)ccc1-n1ncc(C(=O)c2cc3cc(F)c(N4CCOC4=O)cc3[nH]2)c1N [Example 5-1-095]	8.82
COc1cc2cc(C(=O)c3cnn(-c4ccc(Oc5ccccc5F)cc4C)c3N)[nH]c2cc1NS(=O)(=O)CC(=O)N1CCCC1 [Example 5-1-122]	8.34
Cc1cc(Oc2ccccc2F)ccc1-n1ncc(C(=O)c2cc3cc(F)c(N4C(=O)NC5(CCC5)C4=O)cc3[nH]2)c1N [Example 5-1-374]	7.89
Cc1cc(Oc2ccc(F)cc2)ncc1-n1ncc(C(=O)c2cc3cc(F)c(NS(=O)(=O)C4CC4)cc3[nH]2)c1N [Example 5-1-046]	6.96

A: Cc1cc2cc(C(=O)c3cnn(-c4cnc(Oc5c(F)cccc5F)cc4C)c3N)[nH]c2cc1N1C(=O)NC2(CCNC2)C1=O (stereo not drawn) [Example 5-1-358]
B: Cc1cc(Oc2ccccc2F)ccc1-n1ncc(C(=O)c2cc3cc(N4CCOCC4)c(-n4c(C)cc(=O)[nH]c4=O)cc3[nH]2)c1N [Example 5-1-116]
Kindly identify the item with the lower pIC50 figure among these two: A and B Answer by stating the label of the chosen item.
A
(A: 8.38, B: 8.80)

* * *

# assayed-system: human Src enzyme (Homo sapiens, UniProt P12931)
# Construct: purchased Carna Biosciences, Inc. 08-173
# test-method-notes: Src enzyme inhibitory activity (time-resolved fluorometry, biotinylated peptide phosphorylation)
# Type: biochemical
# details: read-out: SRC_IC50
assay-endpoint: IC50 (nM)

The following compounds have reported results that may help.
chemical-string	IC50 (nM)
Cc1cc2cc(C(=O)c3cnn(-c4cnc(Oc5c(F)cccc5F)cc4C)c3N)[nH]c2cc1NS(=O)(=O)N1CCOC[C@H]1C	630
Cc1cc(Oc2ccccc2F)ccc1-n1ncc(C(=O)c2cc3cc(O)c(NS(C)(=O)=O)cc3[nH]2)c1N	12
CC(C)N1CCC(c2cc3[nH]c(C(=O)c4cnn(-c5ccc(Oc6cccc(F)c6F)cc5F)c4N)cc3cc2F)CC1	14
Cc1cc2cc(C(=O)c3cnn(-c4ccc(Oc5ccccc5F)c(F)c4F)c3N)[nH]c2cc1NS(C)(=O)=O	52

a: Cc1cc(-n2ncc(C(=O)c3cc4cc(OC5CCN(C6CCC6)CC5)c(F)cc4[nH]3)c2N)ccc1Oc1ccccc1F
b: Cc1cc(-n2ncc(C(=O)c3cc4cc(OC5CCN(C6CCC6)CC5)c(Br)cc4[nH]3)c2N)ccc1Oc1ccccc1F
Endpoint returns whichever of a and b has the numerically higher IC50. Answer by stating the label of the chosen item.
a

* * *

# assayed-system: human Lck enzyme (Homo sapiens, UniProt P06239)
# Construct: purchased Carna Biosciences, Inc. 08-170
# test-method-notes: Lck enzyme inhibitory activity (time-resolved fluorometry, biotinylated peptide phosphorylation)
# Assay type: biochemical
# details: biotinylated peptide phosphorylation, read-out: LCK_IC50
pIC50: −log10 of the molar value.
assay-endpoint: pIC50

a: Cc1cc(Oc2cccc(F)c2F)ncc1-n1ncc(C(=O)c2cc3cc(F)c(NS(C)(=O)=O)cc3[nH]2)c1N
b: Cc1cc(Oc2cccc(F)c2F)ccc1-n1ncc(C(=O)c2cc3cc(F)c(NS(N)(=O)=O)cc3[nH]2)c1N
c: Cc1cccc(S(=O)(=O)Nc2cc3[nH]c(C(=O)c4cnn(-c5cnc(Oc6c(F)cccc6F)cc5C)c4N)cc3cc2F)n1
d: Cc1cc(-n2ncc(C(=O)c3cc4cc(F)c(NS(N)(=O)=O)cc4[nH]3)c2N)ccc1Oc1ccccc1F
Could you arrange the 4 compounds above by pIC50, starting with the largest number? In plain terms: list the labels in the order you were asked to.
d, b, a, c

1: Cc1cc2cc(C(=O)c3cnn(-c4cnc(Oc5c(F)cccc5F)cc4C)c3N)[nH]c2cc1NS(=O)(=O)CCCF
2: Cc1cc2cc(C(=O)c3cnn(-c4ccc(Oc5ccccc5F)cc4C)c3N)[nH]c2cc1NS(=O)(=O)CC(=O)NC(C)C
Kindly identify the item with the lower pIC50 figure among these two: 1 and 2 Answer by stating the label of the chosen item.
1

* * *

# assayed-system: human Lck enzyme (Homo sapiens)
# Construct: purchased Carna Biosciences, Inc. 08-170
# test-method-notes: Lck enzyme inhibitory activity (time-resolved fluorometry, biotinylated peptide phosphorylation)
# Type: biochemical
# details: biotinylated peptide phosphorylation, read-out: LCK_IC50
pIC50: −log10 of the molar value.
assay-endpoint: pIC50

molecule	pIC50
Cc1cc(Oc2c(F)cccc2F)ncc1-n1ncc(C(=O)c2cc3cc(OC(F)F)c(N4CCCS4(=O)=O)cc3[nH]2)c1N [Example 4-25-005]	7.96
COc1cc2cc(C(=O)c3cnn(-c4c(C)cc(Oc5ccccc5F)cc4F)c3N)[nH]c2cc1N1CCCS1(=O)=O [Example 4-2-120]	8.40

I: Cc1cc(Oc2c(F)cccc2F)ncc1-n1ncc(C(=O)c2cc3cc(F)c(N4C(=O)N[C@@H](C)C4=O)cc3[nH]2)c1N [Example 5-1-406]
II: Cc1cc(Oc2c(F)cccc2F)ncc1-n1ncc(C(=O)c2cc3cc(OCC(F)F)c(N4CCN(S(C)(=O)=O)CC4)cc3[nH]2)c1N [Example 4-23-001]
III: Cc1ccnc(S(=O)(=O)Nc2cc3[nH]c(C(=O)c4cnn(-c5cnc(Oc6ccccc6F)cc5C)c4N)cc3cc2C)c1 [Example 5-1-506]
IV: Cc1ccccc1Oc1cc(C)c(-n2ncc(C(=O)c3cc4cc(F)c(NS(=O)(=O)CCCF)cc4[nH]3)c2N)cn1 [Example 4-2-025]
# sort list by recorded pIC50, greatest to least In plain terms: list the labels in the order you were asked to.
I, II, IV, III
